- experiment.description: Thermostability, temperature of aggregation (ProteoStat Thermal Shift)
- Format: physicochemical
- Design: key: temperature in °C
- test.context: pH 6.0
measured.metric: Tagg
// keep it numeric: no unit symbol after the value

Q: Specify measured Tagg for SEQID-00485: nutritive polypeptide naturally produced in Chickpea, recombinantly expressed in E. coli (protein, listed as Cicer arietinum) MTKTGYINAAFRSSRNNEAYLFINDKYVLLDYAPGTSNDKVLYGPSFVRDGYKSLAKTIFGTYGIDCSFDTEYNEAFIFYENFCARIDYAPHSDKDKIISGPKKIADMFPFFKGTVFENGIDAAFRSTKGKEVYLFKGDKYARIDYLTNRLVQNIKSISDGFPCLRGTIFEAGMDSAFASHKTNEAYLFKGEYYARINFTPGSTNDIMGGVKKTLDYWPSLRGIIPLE .
A: 36

Q: Look up Tagg of SEQID-00502: protein of the 168 nutritive polypeptide library (protein, Glycine max, protein of the 168 nutritive polypeptide library) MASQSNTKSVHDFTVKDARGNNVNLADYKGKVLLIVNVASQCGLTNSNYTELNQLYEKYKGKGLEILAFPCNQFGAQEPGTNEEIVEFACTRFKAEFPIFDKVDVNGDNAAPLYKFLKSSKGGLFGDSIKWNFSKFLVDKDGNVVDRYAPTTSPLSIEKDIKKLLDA and report it.
A: 76.5
